# credit: patent US8188059B2

System: mouse SGLT2 mRNA
METHOD NOTES: Mouse SGLT2 mRNA levels in kidney, 1-10-1 MOE gapmers, Balb/c mice (Example 14, Table 65)
Type: in vivo
TEST SETTINGS: 450 nmol/kg i.p. twice per week for two weeks
Procedure: The short antisense compounds were analyzed for their effect on mouse SGLT2 mRNA levels. […] Mice were sacrificed 48 hours following last administration and evaluated for SGLT2 mRNA levels in kidney. Target levels were determined by RT, real-time PCR as described by other examples herein. […]
Strand notation (5' to 3'): a small letter for the sugar, then the base; units joined by * are phosphorothioate-linked, units joined directly phosphodiester-linked; [ ] holds rarer units or linkages, { } end groups; capitals alone tell only the bases. e = 2'-O-(2-methoxyethyl) (MOE); [5mC] = 5-methylcytosine; d = 2'-deoxy (DNA)
Quick reference: % change in SGLT2 expression relative to saline of the listed items.
ASSAY READOUT: % change in SGLT2 expression relative to saline

>>> result("ISIS 370717: SGLT2; TAGCCACCAACT 1-10-1 MOE gapmer, phosphorothioate (sugars from the 5' end e1 d10 e1, all phosphorothioate, methylation of C not given here)")
"−65%"
>>> result("ISIS 379692: SGLT2; 1-10-1 MOE gapmer (antisense eT*dG*dT*dT*d[5mC]*d[5mC]*dA*dG*d[5mC]*d[5mC]*d[5mC]*eA)")
"−80%"
>>> result("ISIS 379699: SGLT2; GGCATGAGCTTC 1-10-1 MOE (antisense eG*dG*d[5mC]*dA*dT*dG*dA*dG*d[5mC]*dT*dT*e[5mC])")
"−80%"
>>> result("ISIS 379702: targeted to SGLT2 (antisense eG*d[5mC]*dA*d[5mC]*dA*d[5mC]*dA*dG*d[5mC]*dT*dG*e[5mC])")
"−75%"

---

Tested on: PTP1B mRNA
METHOD NOTES: Dose response for human PTP1B in HuVEC cells, Primer Probe Set 198 (Example 25, Table 86)
Format: cell-based
TEST SETTINGS: PPS 198, 30.0 nM
Strand notation (5' to 3'): a small letter for the sugar, then the base; units joined by * are phosphorothioate-linked, units joined directly phosphodiester-linked; [ ] holds rarer units or linkages, { } end groups; capitals alone tell only the bases. e = 2'-O-(2-methoxyethyl) (MOE); [5mC] = 5-methylcytosine; d = 2'-deoxy (DNA)
ASSAY READOUT: % Inhibition of PTP1B mRNA

>>> result("399301 (antisense eG*eT*dG*dT*dG*d[5mC]*dA*d[5mC]*dA*d[5mC]*dA*dG*e[5mC]*eT) [compound 399301]")
"97%"
>>> result("399113 (antisense eG*eT*dT*dA*dG*dG*d[5mC]*dA*dA*dA*dG*dG*eG*e[5mC]) [compound 399113]")
"90%"
>>> result("399132 (antisense eG*eG*dG*d[5mC]*dT*dG*dA*dG*dT*dG*dA*d[5mC]*e[5mC]*e[5mC]) [compound 399132]")
"95%"
>>> result("399276 (antisense eG*eA*dG*dG*dT*dA*dT*d[5mC]*d[5mC]*d[5mC]*dA*dT*e[5mC]*eT) [compound 399276]")
"89%"
>>> result("398173 (antisense e[5mC]*dA*dG*d[5mC]*d[5mC]*dT*dG*dG*dG*d[5mC]*dA*e[5mC]) [compound 398173]")
"97%"
>>> result("399173 (antisense eA*eT*dG*d[5mC]*dT*dA*dG*dT*dG*d[5mC]*dA*d[5mC]*eT*eA) [compound 399173]")
"89%"

---

Test system: PCSK9 mRNA
METHOD NOTES: Dose-dependent inhibition of PCSK9 in Hep3B cells with EC50 (Example 19, Table 76)
Assay type: cell-based, human
TEST SETTINGS: 10 nM
Strand notation (5' to 3'): a small letter for the sugar, then the base; units joined by * are phosphorothioate-linked, units joined directly phosphodiester-linked; [ ] holds rarer units or linkages, { } end groups; capitals alone tell only the bases. e = 2'-O-(2-methoxyethyl) (MOE); [5mC] = 5-methylcytosine; d = 2'-deoxy (DNA)
Items are presented alongside their recorded % Inhibition of PCSK9.
ASSAY READOUT: % Inhibition of PCSK9

>>> result("400327 (eG*eT*d[5mC]*d[5mC]*d[5mC]*d[5mC]*dA*dA*dA*dG*dT*d[5mC]*e[5mC]*e[5mC]; antisense) [compound 400327]")
"37%"
>>> result("400309 (e[5mC]*e[5mC]*d[5mC]*dG*dG*d[5mC]*d[5mC]*dG*d[5mC]*dT*dG*dA*e[5mC]*e[5mC]; antisense) [compound 400309]")
"23%"
>>> result("400308 (e[5mC]*e[5mC]*dG*dG*d[5mC]*d[5mC]*dG*d[5mC]*dT*dG*dA*d[5mC]*e[5mC]*eA; antisense) [compound 400308]")
"10%"
>>> result("400352 (antisense e[5mC]*eA*d[5mC]*d[5mC]*d[5mC]*dT*d[5mC]*dA*d[5mC]*d[5mC]*d[5mC]*d[5mC]*e[5mC]*eA) [compound 400352]")
"16%"
>>> result("400353 (antisense eA*e[5mC]*dA*d[5mC]*d[5mC]*d[5mC]*dT*d[5mC]*dA*d[5mC]*d[5mC]*d[5mC]*e[5mC]*e[5mC]) [compound 400353]")
"27%"
>>> result("400307 (e[5mC]*eG*dG*d[5mC]*d[5mC]*dG*d[5mC]*dT*dG*dA*d[5mC]*d[5mC]*eA*e[5mC]; antisense) [compound 400307]")
"39%"
>>> result("400330 (e[5mC]*e[5mC]*dA*d[5mC]*dG*dT*dG*dG*dG*d[5mC]*dA*dG*e[5mC]*eA; antisense) [compound 400330]")
"32%"
>>> result("400331 (eG*e[5mC]*d[5mC]*dA*d[5mC]*dG*dT*dG*dG*dG*d[5mC]*dA*eG*e[5mC]; antisense) [compound 400331]")
"40%"

---

Readings of % Inhibition Range (PCSK9 mRNA) for the listed substances
Test system: PCSK9 mRNA
Type: cell-based, human
TEST SETTINGS: Hep3B cells, 100 nM, relative to untreated control cells
Strand notation (5' to 3'): a small letter for the sugar, then the base; units joined by * are phosphorothioate-linked, units joined directly phosphodiester-linked; [ ] holds rarer units or linkages, { } end groups; capitals alone tell only the bases. e = 2'-O-(2-methoxyethyl) (MOE); [5mC] = 5-methylcytosine; d = 2'-deoxy (DNA)
ASSAY READOUT: % Inhibition Range (PCSK9 mRNA)

>>> result("400329 (e[5mC]*eA*d[5mC]*dG*dT*dG*dG*dG*d[5mC]*dA*dG*d[5mC]*eA*eG; antisense) [compound 400329]")
"10-20%"
>>> result("400309 (e[5mC]*e[5mC]*d[5mC]*dG*dG*d[5mC]*d[5mC]*dG*d[5mC]*dT*dG*dA*e[5mC]*e[5mC]; antisense) [compound 400309]")
"40-50%"
>>> result("400350 (antisense e[5mC]*e[5mC]*d[5mC]*dT*d[5mC]*dA*d[5mC]*d[5mC]*d[5mC]*d[5mC]*d[5mC]*dA*eA*eA) [compound 400350]")
"10-20%"
>>> result("400354 (antisense eG*eA*d[5mC]*dA*d[5mC]*d[5mC]*d[5mC]*dT*d[5mC]*dA*d[5mC]*d[5mC]*e[5mC]*e[5mC]) [compound 400354]")
"10-20%"
>>> result("400318 (e[5mC]*e[5mC]*dT*dA*dT*dG*dA*dG*dG*dG*dT*dG*e[5mC]*e[5mC]; antisense) [compound 400318]")
"20-30%"
>>> result("400353 (antisense eA*e[5mC]*dA*d[5mC]*d[5mC]*d[5mC]*dT*d[5mC]*dA*d[5mC]*d[5mC]*d[5mC]*e[5mC]*e[5mC]) [compound 400353]")
"10-20%"
>>> result("400365 (antisense e[5mC]*eT*d[5mC]*d[5mC]*dG*dG*d[5mC]*dA*dG*d[5mC]*dA*dG*eA*eT) [compound 400365]")
"20-30%"
>>> result("400351 (antisense eA*e[5mC]*d[5mC]*d[5mC]*dT*d[5mC]*dA*d[5mC]*d[5mC]*d[5mC]*d[5mC]*d[5mC]*eA*eA) [compound 400351]")
"10-20%"
>>> result("400360 (antisense eG*e[5mC]*dA*dT*dG*dG*d[5mC]*dA*dG*d[5mC]*dA*dG*eG*eA) [compound 400360]")
"30-40%"
>>> result("400367 (antisense eG*eG*d[5mC]*dT*d[5mC]*d[5mC]*dG*dG*d[5mC]*dA*dG*d[5mC]*eA*eG) [compound 400367]")
"10-20%"
>>> result("400330 (e[5mC]*e[5mC]*dA*d[5mC]*dG*dT*dG*dG*dG*d[5mC]*dA*dG*e[5mC]*eA; antisense) [compound 400330]")
"40-50%"
>>> result("400331 (eG*e[5mC]*d[5mC]*dA*d[5mC]*dG*dT*dG*dG*dG*d[5mC]*dA*eG*e[5mC]; antisense) [compound 400331]")
"30-40%"
